Task for the reader: assign each of the following molecules its reported IC50.
Measurement Target: UniProtKB Q14680
Sequence (Q14680 whole entry, looked up): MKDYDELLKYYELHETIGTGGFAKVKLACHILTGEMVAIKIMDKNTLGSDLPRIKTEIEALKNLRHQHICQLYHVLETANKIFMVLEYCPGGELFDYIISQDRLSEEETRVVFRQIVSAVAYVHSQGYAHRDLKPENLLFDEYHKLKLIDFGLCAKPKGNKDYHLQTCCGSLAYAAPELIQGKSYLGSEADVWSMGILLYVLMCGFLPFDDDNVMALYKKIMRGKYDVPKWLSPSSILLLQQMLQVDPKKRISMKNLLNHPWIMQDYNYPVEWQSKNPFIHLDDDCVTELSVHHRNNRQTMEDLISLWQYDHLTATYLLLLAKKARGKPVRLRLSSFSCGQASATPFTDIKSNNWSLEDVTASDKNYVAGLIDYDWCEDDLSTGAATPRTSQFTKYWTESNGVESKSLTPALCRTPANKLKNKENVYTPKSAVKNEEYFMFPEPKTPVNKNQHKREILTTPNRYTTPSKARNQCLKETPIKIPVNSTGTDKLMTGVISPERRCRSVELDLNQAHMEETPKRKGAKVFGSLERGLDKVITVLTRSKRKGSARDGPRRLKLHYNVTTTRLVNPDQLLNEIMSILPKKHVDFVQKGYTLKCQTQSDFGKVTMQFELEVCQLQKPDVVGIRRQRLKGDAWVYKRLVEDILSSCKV
Test: Kinase assay: MELK activity, phosphorylation of FITC-labeled histone H3 peptide measured by IMAP fluorescence polarization
Type: biochemical
Recorded Conditions: 50 micro-M ATP, FITC-labeled histone H3 peptide substrate, IMAP fluorescence polarization; read-out: IC50 (μM) (kinase assay)
Structures can show the parent of a compound that is named as a salt.
Answers are plain numbers, in µM.

Please review the following examples before continuing.
COc1cc(-c2ccc3ncc(C(=O)CC(C)C)c(N[C@H]4CC[C@H](N)CC4)c3c2)cc(Cl)c1O [Example 262, dihydrochloride]; 0.005
CC(C)C(=O)c1cnc2ccc(-c3ccc(O)c(Cl)c3)cc2c1N[C@H]1CC[C@H](N)CC1; 0.023
N[C@H]1CC[C@H](Nc2c(C(=O)C3CC3)cnc3ccc(-c4cc(F)c(O)c(Cl)c4)cc23)CC1; 0.0065

Could you now look at the following molecule, please?
Name the reported IC50 value associated with the molecule CN(C)Cc1ccc(Nc2c(S(C)(=O)=O)cnc3ccc(-c4cc(Cl)c(O)c(Cl)c4)cc23)cc1
0.0034

###

Measurement Target: UniProt Q14680
Test: Kinase assay: MELK activity, phosphorylation of FITC-labeled histone H3 peptide measured by IMAP fluorescence polarization
Assay type: biochemical
Recorded Conditions: 50 micro-M ATP, FITC-labeled histone H3 peptide substrate, IMAP fluorescence polarization; read-out: IC50 (μM) (kinase assay)
Task for the reader: assign each of the following compounds its reported IC50.
Answers are plain numbers, in µM.

Please review the following examples before continuing.
CCN(CC)C1CCC(Nc2c(C(C)=O)cnc3ccc(-c4ccc(O)c(Cl)c4)cc23)CC1 (stereo not shown); 0.021
CN(C)CC1CCN(c2c(C(=O)C3CCCC3)cnc3ccc(-c4cc(F)c(O)c(Cl)c4)cc23)CC1; 0.0046
N#Cc1ccc(-c2ccc3ncc(C(=O)C4CC4)c(N[C@H]4CC[C@H](N)CC4)c3c2)s1; 0.046

Could you now look at the following compound, please?
Name the reported IC50 value associated with the compound COc1cc(-c2ccc3ncc(C(=O)C4CC4)c(N4CCN(C(=O)CN(C)C)CC4)c3c2)cc(Cl)c1O
0.0011

###

Test system: T47D cells
Test: Cell-based assay: anti-proliferative activity, Cell Counting Kit-8, 72 hours (T47D)
Recorded Conditions: Homo sapiens, T47D, 72 h
Counter-ions that a name gives are not always drawn.
Task for the reader: assign each of the following molecules its reported IC50.

Please review the following examples before continuing.
O=C(c1cnc2ccc(-c3cc(F)c(O)c(Cl)c3)cc2c1NC1CCC(N2CC[C@@H](F)C2)CC1)C1CC1 (stereo partly shown); 0.17 µM
CC(=O)c1cnc2ccc(-c3cc(F)c(O)c(Cl)c3)cc2c1N[C@H]1CC[C@H](CN2CCC[C@@H]2CO)CC1 [Example 808, hydrochloride]; 0.12 µM
CN(C)CCc1ccc(Nc2c(C(=O)C3CC3)cnc3ccc(-c4cc(F)c(O)c(Cl)c4)cc23)cc1; 0.17 µM
CCC(=O)c1cnc2ccc(-c3cc(Cl)c(O)c(Cl)c3)cc2c1Nc1ccc(N2CCCC(N)C2)nc1 (stereo not shown); 0.021 µM
CN1CCN(C[C@H]2CC[C@H](Nc3c(C(=O)C4CC4)cnc4ccc(-c5cc(Cl)c(O)c(Cl)c5)cc34)CC2)CC1; 0.23 µM

Field: IC50. Fill in for each record below.
1. COc1cc(-c2ccc3ncc(C(=O)C4CC4)c(Nc4ccc(NC5CCCNC5)nc4)c3c2)cc(Cl)c1O (stereo not shown)
2. CC(=O)c1cnc2ccc(-c3cc(Cl)c(O)c(Cl)c3)cc2c1Nc1ccc(N2CCCC(N)C2)nc1 (stereo not shown)
3. CC(=O)c1cnc2ccc(-c3cc(Cl)c(O)c(Cl)c3)cc2c1N[C@H]1CC[C@H](NC(=O)[C@@H]2CCCN2)CC1

1: 0.22 µM; 2: 0.0046 µM; 3: 0.1 µM

Field: IC50. Fill in for each record below.
1. CN(C)C[C@H]1CC[C@H](Nc2c(S(C)(=O)=O)cnc3ccc(-c4ccc(O)c(Cl)c4)cc23)CC1
2. CCC(=O)c1cnc2ccc(-c3cc(Cl)c(O)c(OC)c3)cc2c1N[C@H]1CC[C@H](N(C)C)CC1
3. CC(=O)c1cnc2ccc(-c3cc(F)c(O)c(Cl)c3)cc2c1Nc1cnn(C2CCN(C)CC2)c1 [Example 805, hydrochloride]
4. O=C(c1cnc2ccc(-c3cc(Cl)c(O)c(Cl)c3)cc2c1Nc1cccc(CCN2CCCC2)c1)C1CCCC1 [Example 927, hydrochloride]
5. [2H]C([2H])([2H])N(C[C@H]1CC[C@H](Nc2c(C(C)=O)cnc3ccc(-c4cc(Cl)c(O)c(Cl)c4)cc23)CC1)C([2H])([2H])[2H] [Example 864, dihydrochloride]

0.43 µM
0.35 µM
0.17 µM
1.3 µM
0.067 µM
